Target Under Test: full-length human PKCι (Homo sapiens, UniProt P41743)
Construct: Recombinant, full-length human PKCι expressed in Sf21 insect cells is also commercially available
Assay Explanation: PKCι IC50 IMAP assay, full-length PKCι at 150 μM ATP
Measurement Setup: read-out: IC50 in IMAP assay against full length PKCi at 150 μM ATP
pIC50: −log10 of the molar value.
Observable: pIC50

Record summary for c1ccc(C[C@H]2CNCCN2c2nc(-c3ccncc3)nc3cnccc23)cc1 : reported pIC50 = 6.00 to 7.00

Sample N#CC1CCN(c2nc(-c3ccnc4[nH]c(C(F)(F)F)cc34)nc3cncc(C4CC4)c23)CC1 ; pIC50 observed: 6.00 to 7.00

According to the records, this compound Nc1nccc2c(NC[C@@H](N)Cc3ccccc3)nc(N3CCOCC3)nc12 displays pIC50 of 6.00 to 7.00

COc1cncc2nc(-c3ccnc(Nc4cnccn4)c3)nc(N3CCNCC3)c12 yielded pIC50 of > 7.00

pIC50 reading for c1cc2c(N3CCNCC3)nc(-c3ccnc4[nH]ccc34)nc2cn1 : 6.00 to 7.00

----------
Target Under Test: full-length human PKCι (Homo sapiens)
Construct: Recombinant, full-length human PKCι expressed in Sf21 insect cells is also commercially available; purchased; host or cells: Sf21 insect cells
Assay Explanation: PKCι IC50 IMAP assay, full-length PKCι at 150 μM ATP
Assay type: biochemical
Measurement Setup: read-out: IC50 in IMAP assay against full length PKCi at 150 μM ATP
Observable: IC50

Entry COc1cncc2nc(-c3ccncc3)nc(N3CCN[C@@H](CO)C3)c12 ; IC50 = < 100 nM

So, COc1cncc2nc(-c3ccnc(Nc4nc(C)co4)c3)nc(N3CCNCC3)c12 ? Its IC50 was < 100 nM

Short answer for Cc1ccncc1Nc1cc(-c2nc(N3CCNCC3)c3c(C4CC4)cncc3n2)ccn1 : IC50 was < 100 nM

----------
Target Under Test: full-length human PKCι (Homo sapiens, UniProt P41743)
Construct: Recombinant, full-length human PKCι expressed in Sf21 insect cells is also commercially available
Assay Explanation: PKCι IC50 IMAP assay, full-length PKCι at 150 μM ATP
Measurement Setup: read-out: IC50 in IMAP assay against full length PKCi at 150 μM ATP
Observable: IC50

The value of IC50 measured for the compound Clc1nccc2c(N3CCN[C@@H](Cc4ccccc4)C3)nc(-c3ccncc3)nc12 turned out to be 100 to 1000 nM

Consider FC(F)(F)c1cnnc(Nc2cc(-c3nc(N4CCNCC4)c4c(C5CC5)cncc4n3)ccn2)c1 . Its measured IC50 is < 100 nM

Entry CC(=O)Nc1cc(-c2nc(N3CCNCC3)c3c(C4CC4)cncc3n2)ccn1 — recorded IC50 = < 100 nM

// sample N#Cc1ccc(CC(=O)Nc2cc(-c3nc(N[C@@H]4CCNC4)c4ccncc4n3)ccn2)cc1 , its IC50 was < 100 nM

CS(=O)(=O)Nc1cccc(-c2nccc3c(NC[C@@H](N)Cc4ccccc4)nc(-c4ccncc4)nc23)c1 yielded IC50 of 100 to 1000 nM

In plain terms, COc1cncc2nc(-c3ccnc(Nc4cccc(F)c4F)c3)nc(N3CCNCC3)c12 has a documented IC50 of < 100 nM

# compound c1cc2c(N[C@@H]3CCNC3)nc(-c3ccnc4[nH]ccc34)nc2cn1 ; its IC50 = 100 to 1000 nM

Reported IC50 of CC(C)[C@H]1CN(c2nc(-c3ccnc(Nc4ccccc4)c3)nc3cncc(C4CC4)c23)CCN1 : < 100 nM

Record summary for FC(F)(F)c1cc2c(-c3nc(NC4CCNCC4)c4c(C5CC5)cncc4n3)ccnc2[nH]1 : reported IC50 = < 100 nM

compound CN(CC1CCNCC1)c1nc(-c2ccnc(Nc3ncc(F)cc3F)c2)nc2cncc(C3CC3)c12 , IC50 observed: < 100 nM

// sample Fc1cccc(F)c1-n1cc(Nc2cc(-c3nc(N4CCNCC4)c4c(C5CC5)cncc4n3)ccn2)cn1 , its IC50 was < 100 nM

IC50 measured on COc1cncc2nc(-c3ccnc(Nc4ccccc4)c3)nc(N3CCCCC3)c12 = 10000 to 40000 nM

Looking up CC(C)(C)c1cc2c(-c3nc(N4CCNCC4)c4c(C5CCC5)cncc4n3)ccnc2[nH]1 , I see its IC50 listed as < 100 nM

Query COc1cccc(Nc2cc(-c3nc(N4CCNCC4)c4c(OC)cncc4n3)ccn2)n1 yields IC50 of < 100 nM

Summary for this compound, COc1cc(Nc2cc(-c3nc(N4CCNCC4)c4c(OC)cncc4n3)ccn2)ccc1N1CCOCC1 : IC50 is < 100 nM

Query Clc1cc2c(-c3nc(N4CCNCC4)c4c(C5CC5)cncc4n3)ccnc2[nH]1 yields IC50 of < 100 nM

So, COc1cncc2nc(-c3ccnc(Nc4nccs4)c3)nc(N3CCNCC3)c12 ? Its IC50 was 100 to 1000 nM

COc1cncc2nc(-c3ccnc(Nc4nc(C(F)(F)F)co4)c3)nc(N3CCNCC3)c12 yielded IC50 of < 100 nM

Lookup result for COc1cncc2nc(-c3ccnc(Nc4cccc(F)n4)c3)nc(N3CC[C@H](CO)C3)c12 ; measured IC50: 1000 to 10000 nM

Record FC1(F)CC(Nc2cc(-c3nc(N4CCNCC4)c4c(C5CC5)cncc4n3)ccn2)C1 , field IC50: < 100 nM

For reference, reported IC50 for Fc1cccc(F)c1Nc1cc(-c2nc(N3CCNC(CC(F)(F)F)C3)c3c(C4CC4)cncc3n2)ccn1 (stereo not drawn) stands at 100 to 1000 nM

Measured IC50, CN1CCN(c2cccc(Nc3cc(-c4nc(N5CC[C@H](CO)C5)c5c(C6CC6)cncc5n4)ccn3)c2)CC1 : < 100 nM

IC50 reported for this compound COc1cncc2nc(N3CCOCC3)nc(NC[C@@H](N)Cc3ccccc3)c12 : < 100 nM

For this compound ( c1cc(-c2nc(N3CCNCC3)c3c(C4CC4)cncc3n2)cc(Nc2ccn3nccc3c2)n1 ), measured IC50 is < 100 nM

Given item COc1cccc(Nc2cc(-c3nc(N4CCNCC4)c4c(C5CC5)cncc4n3)ccn2)c1C , the value recorded as its IC50 is < 100 nM

GET /value?item= COc1cncc2nc(-c3ccnc(NC(=O)[C@H](C)c4ccccc4)c3)nc(N[C@@H]3CCNC3)c12 &field=IC50 returns 100 to 1000 nM

# compound O=S1(=O)CCN(c2nc(-c3ccnc4[nH]c(C(F)(F)F)cc34)nc3cncc(C4CC4)c23)CC1 ; its IC50 = 10000 to 40000 nM

----------
Target Under Test: full-length human PKCι (Homo sapiens, UniProt P41743)
Construct: Recombinant, full-length human PKCι expressed in Sf21 insect cells is also commercially available; purchased; host or cells: Sf21 insect cells
Sequence (P41743 1-596): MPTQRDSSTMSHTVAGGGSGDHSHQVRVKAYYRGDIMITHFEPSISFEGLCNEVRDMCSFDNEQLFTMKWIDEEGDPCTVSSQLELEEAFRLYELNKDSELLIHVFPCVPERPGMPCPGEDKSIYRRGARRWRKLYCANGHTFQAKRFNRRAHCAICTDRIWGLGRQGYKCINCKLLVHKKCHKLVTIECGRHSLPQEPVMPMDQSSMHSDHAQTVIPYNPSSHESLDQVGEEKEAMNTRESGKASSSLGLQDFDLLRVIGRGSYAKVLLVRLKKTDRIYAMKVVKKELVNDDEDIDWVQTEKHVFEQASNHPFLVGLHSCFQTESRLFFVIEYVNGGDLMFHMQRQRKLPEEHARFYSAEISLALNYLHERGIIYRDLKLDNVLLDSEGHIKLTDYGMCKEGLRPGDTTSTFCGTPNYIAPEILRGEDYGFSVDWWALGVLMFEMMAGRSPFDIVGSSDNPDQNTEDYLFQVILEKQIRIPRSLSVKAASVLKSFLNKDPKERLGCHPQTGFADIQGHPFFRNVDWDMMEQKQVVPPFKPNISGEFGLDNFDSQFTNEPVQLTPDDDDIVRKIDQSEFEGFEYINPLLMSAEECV
Assay Explanation: PKCι IC50 IMAP assay, full-length PKCι at 150 μM ATP
Assay type: biochemical
Measurement Setup: read-out: IC50 in IMAP assay against full length PKCi at 150 μM ATP
Observable: IC50

// assay full-length human PKCι (Homo sapiens, UniProt P41743), entry N[C@H](CNc1nc(-c2ccncc2)nc2c(-c3ccco3)nccc12)Cc1ccccc1 [Example 115] , IC50 value = < 100 nM

Query CN(C)CCOc1nc(-c2ccnc(Nc3c(F)cccc3F)c2)nc2cncc(C3CC3)c12 [Example 826] on full-length human PKCι (Homo sapiens, UniProt P41743); IC50 returned: 100 to 1000 nM

Measured IC50 (full-length human PKCι (Homo sapiens, UniProt P41743)), entry NC1CCN(c2nc(-c3ccnc(Nc4c(F)cccc4F)c3)nc3cncc(C4CC4)c23)CC1 [Example 690] : < 100 nM

Field IC50 (system: full-length human PKCι (Homo sapiens, UniProt P41743)) for entry Fc1ccc(Cl)c(F)c1Nc1cc(-c2nc(N3CCNCC3)c3c(C4CC4)cncc3n2)ccn1 [Example 618] = < 100 nM

The reported full-length human PKCι (Homo sapiens, UniProt P41743) IC50 of Fc1ccc(Nc2cc(-c3nc(N4CCNCC4)c4c(C5CC5)cncc4n3)ccn2)c(Cl)c1 [Example 570] is < 100 nM

Lab entry: full-length human PKCι (Homo sapiens, UniProt P41743) assay, compound Cc1cccc(Nc2cc(-c3nc(N4CCNCC4)c4c(C5CC5)cncc4n3)ccn2)c1Cl [Example 568] , IC50 = < 100 nM

# IC50 measured on full-length human PKCι (Homo sapiens, UniProt P41743) for item C[C@H]1CN(c2nc(-c3ccnc(Nc4nc(F)c(F)cc4F)c3)nc3cncc(C4CCC4)c23)CCN1 [Example 808] = < 100 nM

Reported full-length human PKCι (Homo sapiens, UniProt P41743) IC50 for item Fc1cnccc1-c1nc(N[C@@H]2CCNC2)c2ccncc2n1 [Example 8] was 100 to 1000 nM
